Measured values drawn from patent EP0923576B1 for this set.

Molecular target: dopamine autoreceptor (Rattus norvegicus, UniProt P61169)
Property Name: pIC50
One number for each entry, as −log10 of the molar value.

Give pIC50 for the following compound: O=C1Cc2c(OCCNCc3ccsc3)ccc(F)c2N1
8.60

----------
Target: dopamine D-2 receptor (Rattus norvegicus)
Construct: homogenized limbic brain tissue is incubated with ^3H-spiroperidol; from tissue
Sequence (P61169 whole entry): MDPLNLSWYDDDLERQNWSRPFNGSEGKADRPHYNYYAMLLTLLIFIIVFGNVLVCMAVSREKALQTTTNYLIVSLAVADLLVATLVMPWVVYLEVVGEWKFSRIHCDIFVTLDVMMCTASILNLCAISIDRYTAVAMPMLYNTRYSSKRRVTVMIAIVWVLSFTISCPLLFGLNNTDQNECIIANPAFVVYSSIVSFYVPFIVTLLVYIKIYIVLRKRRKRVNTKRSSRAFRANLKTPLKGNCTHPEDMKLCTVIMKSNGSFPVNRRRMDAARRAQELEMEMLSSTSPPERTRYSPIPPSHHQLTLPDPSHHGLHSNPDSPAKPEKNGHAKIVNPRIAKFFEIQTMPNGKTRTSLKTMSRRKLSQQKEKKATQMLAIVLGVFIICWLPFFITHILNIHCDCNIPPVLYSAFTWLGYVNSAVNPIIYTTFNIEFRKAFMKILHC
Assay: 3H-spiroperidol binding, affinity for the dopamine D-2 receptor in homogenized limbic brain tissue
Details: read-out: IC50 (nM) D2 Spiper
Property Name: IC50 (nM)
Answers are plain numbers, in nM.

Please review the entries below; each comes with its answer.
- Compound: "O=C1Cc2c(OCCNCc3ccsc3)ccc(F)c2N1 [Example 3a]"
  Tested On: "dopamine D-2 receptor (Rattus norvegicus)"
  Unit Descriptor: "nM"
  IC50: 323
- Compound: "O=C1Cc2c(OCCNCc3cccs3)ccc(F)c2N1 [Example 3b]"
  Tested On: "dopamine D-2 receptor (Rattus norvegicus)"
  Unit Descriptor: "nM"
  IC50: 398

Give IC50 for all compounds that follow.
1. O=C1Cc2c(OCCNCc3cccs3)ccc(Cl)c2N1 [Example 2a]
2. O=C1Cc2c(OCCNCc3ccsc3)ccc(Cl)c2N1 [Example 2b]
3. CSC1C(=O)Nc2c(F)ccc(OCCNCc3ccsc3)c21 (centres unmarked) [Example 1]

[33.5, 26.7, 135]
